Test system: A549
Procedure summary: Cytotoxicity against human A549 cells after 96 hrs by SRB assay
Format: functional, cell-based
Particulars: A549, 96 h
pEC50: −log10 of the molar value.
Measurement name: pEC50

- Compound: "CC(=O)[C@@H]1CC[C@]2(C(=O)NCCN3CCCC3)CC[C@]3(C)[C@H](CC[C@@H]4[C@@]5(C)CC[C@H](O)C(C)(C)[C@@H]5CC[C@]43C)[C@@H]12"
  Assay system: "A549"
  Experimental result: 5.64
- Compound: "CC(=O)[C@@H]1CC[C@]2(C(=O)OCc3ccccc3)CC[C@]3(C)[C@H](CC[C@@H]4[C@@]5(C)CC[C@@H](N)C(C)(C)[C@@H]5CC[C@]43C)[C@@H]12"
  Assay system: "A549"
  Experimental result: 5.44
- Compound: "CC(=O)[C@@H]1CC[C@]2(C(=O)O)CC[C@]3(C)[C@H](CC[C@@H]4[C@@]5(C)CC[C@H](O)C(C)(C)[C@@H]5CC[C@]43C)[C@@H]12 [PLATANIC ACID]"
  Assay system: "A549"
  Experimental result: 4.33
